Every entry's value here was drawn from patent US20140057895A1.

Molecular target: 5-HT4 receptor (Cavia porcellus)
Construct: striatum was isolated which was cryopreserved at −80° C. until use; from tissue; host or cells: guinea pig (Slc-Hartley) striatum membranes
Sequence (O70528 whole entry): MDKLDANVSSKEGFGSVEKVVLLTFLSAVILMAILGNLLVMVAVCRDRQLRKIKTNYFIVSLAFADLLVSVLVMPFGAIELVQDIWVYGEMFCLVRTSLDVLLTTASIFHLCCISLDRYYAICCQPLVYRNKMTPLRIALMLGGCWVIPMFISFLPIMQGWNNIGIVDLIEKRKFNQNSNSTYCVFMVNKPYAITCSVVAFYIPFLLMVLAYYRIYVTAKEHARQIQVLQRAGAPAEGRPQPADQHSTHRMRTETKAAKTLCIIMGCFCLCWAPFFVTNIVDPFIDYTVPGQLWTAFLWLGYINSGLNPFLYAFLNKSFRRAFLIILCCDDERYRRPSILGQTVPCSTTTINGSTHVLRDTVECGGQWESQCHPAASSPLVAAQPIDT
Experiment: Test Example 3: Guinea pig 5-HT4 receptor binding assay, [3H]-GR113808, striatum membranes (Table 98)
Details: Guinea pig 5-HT4 receptor binding assay, [3H]-GR113808, striatum membranes; mean value of each group; read-out: IC50
Counter-ions that a name gives are not always drawn.

MOLECULE	IC50
CCc1nn(-c2noc(C3CCN(C4CCN(C(=O)COC)CC4)CC3)n2)c2c(F)cccc12 [Example 237, hydrochloride]	< 20 nM
COCC(=O)N1CCC(CN2CCC(c3nc(-n4nc(C(C)C)c5ccc(F)c(F)c54)no3)CC2)CC1 [Example 481, trifluoroacetate]	< 20 nM
CC(=O)N1CCC(N2CCC(c3nc(-n4nc(C(C)C)c5cccc(C)c54)no3)CC2)CC1 [Example 413]	< 20 nM
CC(=O)N1CC(CN2CCC(c3nc(-n4nc(C(C)C)c5cccc(F)c54)no3)CC2)C1 [Example 219, hydrochloride]	< 20 nM

====

Molecular target: human 5-HT4b receptor (Homo sapiens)
Construct: expressed in transfected cells; host or cells: CHO cells (G418 selection)
Experiment: Test Example 4: Serotonin 4 (5-HT4) receptor agonist activity assay, cAMP HTRF in CHO cells (Table 100)
Type: cell-based
Conditions: CHO, 0.25 h; intrinsic activity, maximal activity of 5-HT defined as 100%; mean value; read-out: IA (%)
Structures can show the parent of a compound that is named as a salt.

COMPOUND	Emax [%]
CCc1nn(-c2noc(C3CCN(C[C@@H]4CCN(S(C)(=O)=O)C4)CC3)n2)c2c(F)cccc12	71.8
CC(C)c1nn(-c2noc(C3(O)CCN(C4CCN(C(=O)CO)CC4)CC3)n2)c2c(F)cccc12	70.4
CCc1nn(-c2noc(C3CCN(CC4CN(C(=O)OC)C4)CC3)n2)c2c(F)c(F)ccc12 [Example 470, trifluoroacetate]	70.4
CCc1nn(-c2noc(C3CCN(CC4CN(C(C)=O)C4)CC3)n2)c2c(F)c(F)ccc12 [Example 468, trifluoroacetate]	69.8

====

Molecular target: human 5-HT4b receptor (Homo sapiens, UniProt Q13639)
Construct: expressed in transfected cells; host or cells: CHO cells (G418 selection)
Sequence (Q13639 whole entry): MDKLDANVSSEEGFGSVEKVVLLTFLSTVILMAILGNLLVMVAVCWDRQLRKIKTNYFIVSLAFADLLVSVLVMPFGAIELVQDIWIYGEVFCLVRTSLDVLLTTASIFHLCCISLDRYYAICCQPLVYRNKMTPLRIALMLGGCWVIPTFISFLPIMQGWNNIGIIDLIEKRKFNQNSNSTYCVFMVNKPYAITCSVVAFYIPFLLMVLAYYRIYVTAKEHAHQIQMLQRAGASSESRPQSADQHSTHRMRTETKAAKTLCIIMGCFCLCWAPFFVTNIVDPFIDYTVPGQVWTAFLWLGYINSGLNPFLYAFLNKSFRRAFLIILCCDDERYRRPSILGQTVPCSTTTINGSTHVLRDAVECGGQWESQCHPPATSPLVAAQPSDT
Experiment: Test Example 4: Serotonin 4 (5-HT4) receptor agonist activity assay, cAMP HTRF in CHO cells (Table 100)
Format: cell-based
Settings: CHO, 0.25 h; intrinsic activity, maximal activity of 5-HT defined as 100%; mean value; read-out: IA (%)
Structures can show the parent of a compound that is named as a salt.
// Emax lookup, one value per entry

MOLECULE	Emax, %
CCc1nn(-c2noc(C3CCN(C4(C)CCN(C(C)=O)CC4)CC3)n2)c2c(F)cccc12	91
COC(=O)N1CC(CN2CCC(c3nc(-n4nc(C(C)C)c5ccc(F)c(F)c54)no3)CC2)C1 [Example 474, trifluoroacetate]	89.4
CC(C)c1nn(-c2noc(C[C@H]3CCN(C[C@H]4CCN(C(=O)CO)C4)C3)n2)c2c(F)cccc12	58
CC(C)c1nn(-c2noc(C[C@H]3CCN(CC4CN(S(C)(=O)=O)C4)C3)n2)c2c(F)cccc12	70
O=C(CO)N1CCC(N2CCC(c3nc(-n4nc(C5CCC5)c5cccc(F)c54)no3)CC2)CC1	114
CC(=O)N1CC(CN2CCC(c3nc(-n4nc(C(C)C)c5ccc(F)c(F)c54)no3)CC2)C1 [Example 472, trifluoroacetate]	54.3
